Data credit: PubChem BioAssay (EPA / NIEHS)

Target: Peroxisome proliferator-activated receptor gamma (Homo sapiens) (UniProt P37231)
Sequence (P37231 whole entry, looked up): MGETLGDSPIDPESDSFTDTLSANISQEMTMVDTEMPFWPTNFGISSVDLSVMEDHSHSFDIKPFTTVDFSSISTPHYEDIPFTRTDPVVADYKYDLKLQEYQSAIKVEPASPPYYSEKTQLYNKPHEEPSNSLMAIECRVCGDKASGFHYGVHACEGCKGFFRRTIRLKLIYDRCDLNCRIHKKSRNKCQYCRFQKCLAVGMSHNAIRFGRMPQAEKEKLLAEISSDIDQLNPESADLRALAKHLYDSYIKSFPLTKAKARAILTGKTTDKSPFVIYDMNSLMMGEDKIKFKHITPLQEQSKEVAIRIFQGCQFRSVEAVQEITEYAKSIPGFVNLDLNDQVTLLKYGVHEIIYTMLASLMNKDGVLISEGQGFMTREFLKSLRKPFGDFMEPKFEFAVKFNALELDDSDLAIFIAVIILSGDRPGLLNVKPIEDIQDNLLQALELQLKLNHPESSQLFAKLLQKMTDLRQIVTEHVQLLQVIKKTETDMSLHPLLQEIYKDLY
Assay: ATG_PPARg_TRANS: Attagene TRANS-FACTORIAL HepG2 Assay for human Peroxisome Proliferator-activated Receptor-gamma (PPARg) (AID 2283007)
Records with an inconclusive call do not appear. Active and inactive are the calls of the source. How the source made its calls: active means hit-call score of the fitted dose curve at least 0.9, where 1 is the maximum; inconclusive means response in the unintended direction; inactive means score below 0.9.
Give your call using only these classes: 1 (yes) for active, 0 (no) for inactive

q: Test call for this compound, please: CCCCCCCCCCCCCOS(=O)(=O)O
a: 1 (yes)

q: Test call for this compound, please: Cc1ccc(C(=O)c2cc(O)c(O)c([N+](=O)[O-])c2)cc1
a: 1 (yes)

q: Test call for this compound, please: C=C(C)C(=O)OCCOC(=O)CC(C)=O
a: 0 (no)

q: Test call for this compound, please: COc1cc(C)cc(O)c1
a: 0 (no)

q: Test call for this compound, please: CCCCCCCCCCCCN(CCCCCCCCCCCC)CCCCCCCCCCCC
a: 0 (no)

q: Test call for this compound, please: Nc1cc([N+](=O)[O-])ccc1Cl
a: 1 (yes)

q: Test call for this compound, please: Cc1c(Cl)c(=O)oc2cc(O)ccc12
a: 1 (yes)

q: Test call for this compound, please: Cc1ccc2ccccc2n1
a: 0 (no)

q: Test call for this compound, please: CCCCC/C=C/C=C/C=O
a: 1 (yes)

q: Test call for this compound, please: O=[N+]([O-])c1ccc(C=Cc2ccc([N+](=O)[O-])cc2S(=O)(=O)O)c(S(=O)(=O)O)c1
a: 0 (no)

q: Test call for this compound, please: CCn1c2ccccc2c2cc(N)ccc21
a: 1 (yes)

q: Test call for this compound, please: C=CC(C)(O)CCC=C(C)CCC=C(C)C (stereo not drawn)
a: 1 (yes)

q: Test call for this compound, please: C[C@]12CC[C@H]3[C@@H](CCC4=CC(=O)CC[C@@]43C)[C@@H]1CC[C@@H]2C(=O)CO
a: 0 (no)

q: Test call for this compound, please: CCCCC(CC)COC(=O)/C=C\C(=O)OCC(CC)CCCC (stereo not drawn)
a: 1 (yes)

q: Test call for this compound, please: CCN(CC)c1ccc2c(-c3ccccc3C(=O)O)c3ccc(=[N+](CC)CC)cc-3oc2c1
a: 1 (yes)

q: Test call for this compound, please: C=C(C)C(=O)O[C@H]1C[C@@H]2CC[C@@]1(C)C2(C)C
a: 0 (no)

q: Test call for this compound, please: CCCCCCCCCCCCCC(=O)O
a: 0 (no)

q: Test call for this compound, please: CSc1nc(NC2CC2)nc(NC(C)(C)C)n1
a: 1 (yes)

q: Test call for this compound, please: OC1OC[C@@H](O)[C@H](O)[C@H]1O (stereo partly drawn)
a: 0 (no)

q: Test call for this compound, please: C=C(C)C(=O)O
a: 0 (no)

q: Test call for this compound, please: C=CC(=O)OCC(O)COc1ccccc1 (stereo not drawn)
a: 1 (yes)

q: Test call for this compound, please: C=CC(=O)NCOCC(C)C
a: 0 (no)

q: Test call for this compound, please: Clc1ccc2c(c1)C(N1CCNCC1)=Nc1ccccc1O2
a: 0 (no)

q: Test call for this compound, please: CCCCCCCCC
a: 0 (no)

q: Test call for this compound, please: CCCCCCCCCOC(C)=O
a: 0 (no)

q: Test call for this compound, please: C=C(C)C(=O)Nc1ccc(Cl)c(Cl)c1
a: 1 (yes)

q: Test call for this compound, please: CN1[C@@H]2CC(OC(=O)[C@H](CO)c3ccccc3)C[C@H]1[C@@H]1O[C@@H]12 (stereo partly drawn)
a: 0 (no)

q: Test call for this compound, please: C=CC(C)(CCC=C(C)C)OC=O (stereo not drawn)
a: 0 (no)
